Hello, the source for this data is paper PMC8930183, in case you need it.

B1: Pf41 D1D2 (residues 21-368), untagged [Plasmodium falciparum] / octa-histidine tagged Pf12 D1D2 (residues 28-304) [Plasmodium falciparum] (parent complex)
chain 1: KSHKCDFTKEKYLLSGEKEVSCEIDANPSDDITFICPNKIDSLCFHTVNISKNINQNKSTMSIQDLLYGSVVYGNTLFISPYVRTNTPFYCFCNLDTVTIQKFLKINRFLKDDDELSEADVMKHLKGGNVSEAQADEYLNKALNRFKKMKDLSKFFNDQADNTTKLNLPKSLNIPNDILNYDVYNSSNNRNDIVVKDEVTNKQIISKRGIMSVFVRSNNNVIKGCDFGNNNKNYFSHPISVAGKVNNKVCKIQGKPGELVGFKCAFEENGKVEPPNCFDQVLHKNKVTDLKTLIPGYASYTNKHSSKYPYYLKIPHFVNEQYTIQCKCKSNNSQNEYTFELDIQPGES
chain 2: NLTCDFNDVYKLEFHPNQQTSVTKLCNLTPNVLEKVTIKCGSDKLNYNLYPPTCFEEVYASRNMMHLKKIKEFVIGSSMFMRRSLTPNKINEVSFRIPPNMMPEKPIYCFCENKKTITINGSNGNPSSKKDIINRGIVEIIIPSLNEKVKGCDFTTSESTIFSKGYSINEISNKSSNNQQDIVCTVKAHANDLIGFKCPSNYSVEPHDCFVSAFNLSGKNENLENKLKLTNIIMDHYNNTFYSRLPSLISDNWKFFCVCSKDNEKKLVFTVEASISS

variants of: B1; experiment: BLI; mutant at 1000 nM, 500 nM, and 250 nM; binding to immobilised WT Pf12; parent: 100; read off a plot
measure: percent of parent

- chain 1 F146L: ~122 % WT
- chain 1 F146A: ~37 % WT
- chain 1 L143A: ~1 % WT
- chain 1 N319A: ~36 % WT
- chain 1 L139A: ~4 % WT
- chain 1 E347A: ~18 % WT
- chain 1 H316A: ~75 % WT
- chain 1 E320A: ~103 % WT
- chain 1 F317A: ~1 % WT
